System: U-87 MG
Method Notes: Cytotoxicity against human U87MG cells assessed as cell viability at 100 uM incubated for 24 hrs by WST-1 assay (reference value: 97 %)
Format: functional, U-87MG ATCC
Protocol Conditions: read-out: Activity
Reported Property: viability at 100 µM (%)
Response body: numeric value in %, unit text excluded.

Which viability at 100 µM reading was recorded for the compound COC(=O)C(Cc1cn(C(=O)OC(C)(C)C)c2ccc(B3OC(C)(C)C(C)(C)O3)cc12)N(C(C)=O)C(=O)OC(C)(C)C (configuration not stated) ?
70.2

Fill in the blank: the reported viability at 100 µM of COC(=O)C(Cc1cn(C(=O)OC(C)(C)C)c2cc(B3OC(C)(C)C(C)(C)O3)ccc12)N(C(=O)OC(C)(C)C)C(=O)OC(C)(C)C (configuration not stated) is ____.
60.1

Entry COC(=O)C(N)Cc1c[nH]c2ccc(B3OC(C)(C)C(C)(C)O3)cc12 (configuration not stated) : reported viability at 100 µM = ?
65.8

Give its viability at 100 µM value. Item: COC(=O)C(Cc1c[nH]c2ccc(B3OC(C)(C)C(C)(C)O3)cc12)NC(C)=O (configuration not stated)
66.2

Requested field: viability at 100 µM. Item: COC(=O)C(Cc1cn(C(=O)OC(C)(C)C)c2ccc(B3OC(C)(C)C(C)(C)O3)cc12)N(C(=O)OC(C)(C)C)C(=O)OC(C)(C)C (configuration not stated)
67.4

Give its viability at 100 µM value. Item: COC(=O)C(Cc1c(B2OC(C)(C)C(C)(C)O2)[nH]c2c(B3OC(C)(C)C(C)(C)O3)cccc12)N=[N+]=[N-] (configuration not stated)
61.3

Quick one: viability at 100 µM of N[C@@H](Cc1ccc(B(O)O)cc1)C(=O)O ?
67

---

Method Notes: Cytotoxicity against mouse 3T3 cells assessed as cell viability incubated for 24 hrs by WST-1 assay (reference value: 57 %)
Format: cell-based
Protocol Conditions: NIH3T3 cells, read-out: Activity
Consider the following compounds and their measured viability at 24 h readings.

Recorded viability at 24 h, per entry:
May I ask what viability at 24 h has been recorded for COC(=O)C(Cc1cn(C(=O)OC(C)(C)C)c2cc(B3OC(C)(C)C(C)(C)O3)ccc12)N(C(=O)OC(C)(C)C)C(=O)OC(C)(C)C (configuration not stated) ?
63.6%

Look up viability at 24 h for this compound: COC(=O)C(Cc1c(B2OC(C)(C)C(C)(C)O2)[nH]c2c(B3OC(C)(C)C(C)(C)O3)cccc12)N=[N+]=[N-] (configuration not stated)
66.6%

Look up viability at 24 h: COC(=O)C(Cc1cn(C(=O)OC(C)(C)C)c2ccc(B3OC(C)(C)C(C)(C)O3)cc12)N(C(=O)OC(C)(C)C)C(=O)OC(C)(C)C (configuration not stated)
60.2%

Please look up its viability at 24 h: COC(=O)C(N)Cc1c[nH]c2ccc(B3OC(C)(C)C(C)(C)O3)cc12 (configuration not stated)
53%

Value lookup for viability at 24 h; key = COC(=O)C(Cc1cn(C(=O)OC(C)(C)C)c2ccc(B3OC(C)(C)C(C)(C)O3)cc12)N(C(C)=O)C(=O)OC(C)(C)C (configuration not stated)
63.6%

Look at this compound and give its reported viability at 24 h. N[C@@H](Cc1ccc(B(O)O)cc1)C(=O)O
110%

Continue with the compound presented below.
For the compound COC(=O)C(Cc1c[nH]c2ccc(B3OC(C)(C)C(C)(C)O3)cc12)NC(C)=O (configuration not stated) , what viability at 24 h is on record?
60.2%
